system: COLO 205; experiment: NCI tumour cell line growth inhibition, 48 h
Active and inactive are the calls of the source. Rule as the data show it: active = GI50 up to about 1.1 µM and inactive = higher.
measurement.name: GI50

Solved cases below.
compound	GI50
CC1C(C#N)(C#N)C(C#N)=C(N)C1(Cl)[N+](=O)[O-] (stereo unspecified)	4.9 µM (inactive)
O=C1C(Cl)=C(Cl)C(Cl)(Cl)C(Cl)C1(Cl)Cl (stereo unspecified)	17.9 µM (inactive)
CC(C)/C(Cl)=N\OC(=O)Nc1ccc(F)cc1F	1.87 µM (inactive)

Consider the compound O=C(O)CC(NC(=O)/C(=C/c1ccccc1)NC(=O)c1ccccc1)C(=O)O (stereo unspecified) and give its measured GI50.
> 100 µM (inactive)

Consider the compound c1ccc(/N=C2\SC(c3ccccc3)CN2C23CC4CC(CC(C4)C2)C3)cc1 (stereo unspecified) and give its measured GI50.
> 100 µM (inactive)

Consider the compound O=C(Nc1cccc(Cc2cccc(NC(=O)c3ccccc3)c2)c1)c1ccccc1 and give its measured GI50.
> 100 µM (inactive)

# credit: ChEMBL document CHEMBL1201862
